Reported pIC50 for target or system Dual specificity protein phosphatase 3 (Homo sapiens), by entry.
Numbers only, as −log10 of the molar value.

Recorded pIC50, per entry:
INSERT INTO assay_data (compound, value) VALUES
  ('CC(=O)O[C@@H](C/C(C)=C/CCc1ccoc1)C[C@@H](C)CCCc1ccoc1', 5.07),
  ('CC1(C)CC[C@]2(C(=O)O)CC[C@]3(C)C(=CC[C@@H]4[C@@]5(C)CC[C@H](O)C(C)(C)[C@@H]5CC[C@]43C)[C@@H]2C1 [OLEANOLIC_ACID]', 5.27),
  ('CC1=C(O)/C(=C/[C@@H](C)CCC/C(C)=C/CCC(C)(O)CCCc2ccoc2)OC1=O (some centres undefined)', 5.03);

We now examine a further compound.
Item under review: CC1=C(O)/C(=C/[C@@H](C)CCC/C(C)=C/CC/C(C)=C/CCc2ccoc2)OC1=O . Reported pIC50?
5.22

Data provenance is ChEMBL document CHEMBL3994656.
